System: SUM149PT spheroids with HUVEC/MSC, viability
Assay comment: Anticancer human tumor SUM149PT cell line growth inhibition [GQUAD];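 also: spheroids exposed to drugs for seven days before readout; percent viability relative to DMSO vehicle control taken as 100%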
Experimental setup: second compound 3.16 µM; first compound 1 µM; active compounds read low
Quantity: viability, T/C (%)
Numbers only here, please. The scale is %.

Please review the following examples before continuing.
{"columns": ["Compound", "Measurement units", "viability, T/C"],
 "data": [
  ["COc1ncnc(C2CC2)c1-c1ncc2cnn(Cc3ccc(-c4nc(C(F)(F)F)cn4C(C)C)cc3)c2n1 + CN(C)c1ccc(Nc2c3ccc(NC(=O)CCN4CCCC4)cc3nc3cc(NC(=O)CCN4CCCC4)ccc23)cc1", "%", 74.1],
  ["COc1ccc([C@@H](O)c2cc(-c3ncnc4cc(N5CCOCC5)ccc34)c(F)cc2Cl)nn1 + Cc1[nH]c2ccc(F)cc2c1-c1nc2c3cccnc3c3ncccc3c2[nH]1", "%", 49.8]
]}

Read the next record carefully.
Lookup result for C=CC(=O)N1CCN(c2nc(=O)n(-c3c(C)ccnc3C(C)C)c3nc(-c4c(O)cccc4F)c(F)cc23)C(C)C1 (stereo not drawn) + Cc1[nH]c2ccc(F)cc2c1-c1nc2c3cccnc3c3ncccc3c2[nH]1 ; measured viability, T/C: 109
